These measurements were taken from BigSolDB 2.1.

Conditions: in water, 333.15 K

Molecular String: [NH3+]O.[NH3+]O.[O-]n1nnnc1-c1nnnn1[O-]
solubility (mole fraction): 0.000665

###

Conditions: in water, 323.15 K
Recorded Metric: solubility (mole fraction)

Molecular String: [NH3+]O.[NH3+]O.[O-]n1nnnc1-c1nnnn1[O-]
Reported Value: 0.000489

###

Settings: in formic acid, 318.15 K
Recorded Metric: solubility (mole fraction)

Molecular String: [NH3+]O.[NH3+]O.[O-]n1nnnc1-c1nnnn1[O-]
Reported Value: 0.00225

###

Conditions: in water, 308.15 K
Recorded Metric: solubility (mole fraction)

Molecular String: [NH3+]O.[NH3+]O.[O-]n1nnnc1-c1nnnn1[O-]
Reported Value: 0.00024

###

Conditions: in water, 328.15 K
Recorded Metric: solubility (mole fraction)

Molecular String: [NH3+]O.[NH3+]O.[O-]n1nnnc1-c1nnnn1[O-]
Reported Value: 0.00058

###

Settings: in formic acid, 313.15 K

Molecular String: [NH3+]O.[NH3+]O.[O-]n1nnnc1-c1nnnn1[O-]
solubility (mole fraction): 0.00201

###

Details: in water, 318.15 K
Recorded Metric: solubility (mole fraction)

Molecular String: [NH3+]O.[NH3+]O.[O-]n1nnnc1-c1nnnn1[O-]
Reported Value: 0.000403

###

Conditions: in formic acid, 298.15 K
Recorded Metric: solubility (mole fraction)

Molecular String: [NH3+]O.[NH3+]O.[O-]n1nnnc1-c1nnnn1[O-]
Reported Value: 0.00145

###

Settings: in water, 313.15 K
Recorded Metric: solubility (mole fraction)

Molecular String: [NH3+]O.[NH3+]O.[O-]n1nnnc1-c1nnnn1[O-]
Reported Value: 0.000317

###

Details: in formic acid, 328.15 K
Recorded Metric: solubility (mole fraction)

Molecular String: [NH3+]O.[NH3+]O.[O-]n1nnnc1-c1nnnn1[O-]
Recorded Metric: solubility (mole fraction)
Reported Value: 0.00287

###

Conditions: in water, 303.15 K

Molecular String: [NH3+]O.[NH3+]O.[O-]n1nnnc1-c1nnnn1[O-]
solubility (mole fraction): 0.000155

###

Conditions: in formic acid, 308.15 K
Recorded Metric: solubility (mole fraction)

Molecular String: [NH3+]O.[NH3+]O.[O-]n1nnnc1-c1nnnn1[O-]
Reported Value: 0.0018
